- TEST NAME: Maximum tolerable concentration for chick embryo fibroblasts
- Format: cell-based
- EXPERIMENTAL PARAMETERS: chicken
Where a name gives a salt, the structure may show the parent alone.
Measured MNTC values are reported for all entries that follow.

COMPOUND | MNTC / µg/mL
CCOC(=O)c1c(CSc2ccccc2)n(C)c2cc(Br)c(O)c(CN(C)C)c12.Cl.O [preparation of the invention, hydrochloride monohydrate] | 20
CC(N)C12CC3CC(CC(C3)C1)C2 (centres unmarked) [Remantadine, hydrochloride] | 20

----------
- TEST NAME: Acute toxicity, single oral administration, mice
- EXPERIMENTAL PARAMETERS: mouse, in vivo
MEASURED ENDPOINT: LD50 (mg/kg)

SUBSTANCE SMILES | ENDPOINT RESULT
CCOC(=O)c1c(CSc2ccccc2)n(C)c2cc(Br)c(O)c(CN(C)C)c12.Cl.O | 340
